Quick reference: folding stability dG unfold of the listed items.
assay: folding stability dG unfold (combined trypsin and chymotrypsin); higher = more stable
Your answer is read as kcal/mol, so omit the unit and give the number.

For orientation, consider the following solved cases.
1. SAGGSAGGSAGGGMSVKVTVKDPVNGTTSVYELSVPPGVSNVVINVKTPDNSTVTKVTLESAGGSAGGSAGG [r7_687_JUSTAS]    1.11
2. SAGGSAGGPEITIIIGNAGPIEVALKTAKEIKKILEEKGYPNVKIPILIIPFGSPEKLKEALGGSAGGSAGG [r6_476_TrMRF]    0.383

# next sequence below
Consider the sequence shown here: SAGGSAGGSGNPTPPAEPTVTLSTSDWNEVKERVEKAGLEYETFPGEGKVTLPASDFEKIKEESAGGSAGGS [r12_325_JUSTAS] What is its recorded folding stability dG unfold?
-0.00313

###

assay: folding stability dG unfold from chymotrypsin proteolysis; higher = more stable
reported metric: folding stability dG unfold (kcal/mol)
Your answer is read as kcal/mol, so omit the unit and give the number.

For orientation, consider the following solved cases.
1) SAGGSAGGSGGVIDIPVYGEDGEKFIASAPKEVIEKAIKEGKPIEVYVVDDGKIIKKFTISTGSAGGSAGGS [r12_991_TrMRF]    -0.0658
2) SAGGSAGGSMTETVEKTMPSNGATAEITKLPDGSIKVTIKGSNPVIETFPADEPLVIKPGLEGSAGGSAGGS [r12_1003_JUSTAS]    0.621
3) SAGGSAGGSAGGKKIIKVNLRIYDPVNPKVTVLPIEAPFDEIIKIAKEIAAPDQVVEISSAGGSAGGSAGGS [r10_397_TrMRF]    -0.506
4) KKKIKKIEIEIKIPVKSIEEAKEEVEKLAKELKEKFPEIKKIKVEIIKYDEKKGYITVKITIEVNGKKIEFS [r1_52_TrROS_Hall]    1.24
5) SAGMKITVVELDGKSPEELSEEELKKLAEELLKELFPDVKKVKKVTVKVERLPDGRLVLVEVEIEVEEPSAG [r5_526_TrROS_Hall]    1.03

Consider the sequence shown here: SAGGSAGGSAGGKPKTVKIIRDKKTNRLLIERDGKVYEFDVDNVEVREVTLEDLKEEELSAGGSAGGSAGGS [r10_512_TrROS_Hall] What is its recorded folding stability dG unfold?
1.2

Consider the sequence shown here: SAGGSAGGSAGGMKTIVFTTLSPEEAQALADELKAKGVDVEVTYEPVPVTPRPLPLNRLSAGGSAGGSAGGS [r10_361_JUSTAS] What is its recorded folding stability dG unfold?
3.06

###

assay: folding stability dG unfold (combined trypsin and chymotrypsin); higher = more stable
# if value of folding stability dG unfold reaches 0.5 kcal/mol, tag Y; if it stays below, tag N

Study these solved cases before continuing.
1. SMKVEIEEEVEGDRITLTIKFDDEEEAEKAIKELAKELGIPMKVLSRESEKLPGGEYKLTITGEVPPDLKSA [r9_102_JUSTAS]    Y
2. MKPLTPEEVKKIAEGIAKEIEKAAKALGIDKVEVPVKIEKLPDGGYKIIIEVKLYKDDKKIGTFPIEIYIDS [r1_364_TrMRF]    Y
3. SAGGSAGPMVKTTEFSAVYTGPGGVSRGPVAVTVEIPPGDPSNPVLTVTLPDGTPRTLAAGEVEAASAGGSA [r15_954_JUSTAS]    N

For the next question, use this sequence.
Tell me whether folding stability dG unfold is at least 0.5 kcal/mol here: SAGGSAGGSAGKKRKIEINIIVPPEGAKQMAKMIKDELAQRNRDVDIEIKIIPVPPGQPLSAGGSAGGSAGG [r11_973_TrROS]
N

###

Quick reference: folding stability dG unfold of the listed items.
assay: folding stability dG unfold from chymotrypsin proteolysis; higher = more stable
The reply should consist of the numeric value with the unit placed after it.

1. SAGGSAGGKIEEIAKKLNLEVESIEYDKETKKVTVTIKVNGKLYKIEIYVENGKIVKIKIEELPSAGGSAGG [r6_373_TrROS_Hall]    18 kJ/mol
2. SAGGSAMTKVTVTFDPVTGTYTIKTTDSKGPSEYPLPKSFLEKTPLSEVAKKLNLNISEFTIEPNPSAGGSA [r15_801_JUSTAS]    5.24 kJ/mol
3. SAGGSASVVLPNATVEELKEAVEKGAKEIVVVSPDPARAATIKAEIEKLHDTPVKVLTPEEAAALESAGGSA [r15_243_JUSTAS]    5.5 kJ/mol

Consider the sequence shown here: SAGGSAGGSAGGNYFMMVVLEIRLPPELKGMSPEEWLKKNGYEVTEIEIKGIYPFPPPDGSAGGSAGGSAGG [r7_62_TrROS] What is its recorded folding stability dG unfold?
13.9 kJ/mol

Consider the sequence shown here: SAGGSAGGSAGGMTLTVKDPASDEWTTVDLSPEQLPEVRAAVPEGPVTFELEASDSVIELSAGGSAGGSAGG [r7_188_JUSTAS] What is its recorded folding stability dG unfold?
3.93 kJ/mol

Consider the sequence shown here: SAMNLRFPLSTEALAKLLENLTPDQTLELRVRIGDRWVRVRLEIHRIERKEDELRVEVTLEVEPLRPEDSAG [r14_335_TrMRF] What is its recorded folding stability dG unfold?
14 kJ/mol

Consider the sequence shown here: SAGGSAGGKKKVIEITVKITLFNENGEEVATFEAKITIIEDKETKEYYAVITFKDGSTLVIKLPSAGGSAGG [r6_923_TrROS_Hall] What is its recorded folding stability dG unfold?
21.4 kJ/mol

###

assay: folding stability dG unfold (combined trypsin and chymotrypsin); higher = more stable
reported metric: folding stability dG unfold (kcal/mol)
Your answer is read as kcal/mol, so omit the unit and give the number.

For orientation, consider the following solved cases.
1. SAGGSAGGSAGPVPKTITVTVSSPEEAEAAVKEIKPKYPNVKVERKKVGDKIVLTITVEESAGGSAGGSAGG [r17_319_JUSTAS]    1.75
2. SAGGSAGMELVPLPSPQLVPLTVETTPLPETGTTLVTETSPLGERTVTRVDPAGNVTTLSSTSTSTSAGGSA [r15_790_JUSTAS]    -0.226
3. SAGGSAMPSPITVTTFPGGTARLVEFPDGSTAVVEIVEEGPERVLVTTTTPPDGVPTTSVVPAAELSAGGSA [r15_941_JUSTAS]    -0.537
4. SAGGSAGGSAGPPNQRHEYEIKLTIYDPDNGKKFTIKIPMESPWDMPNFMRKLADNGYIKSAGGSAGGSAGG [r11_668_TrROS]    1.12

Consider the sequence shown here: SAGKEKEIAEAIEEFLKEKGYDVKVKLIKVNPNNPNLSKVVLEVEVLGYLPDKKPLGKKRFKLVILGGSAGG [r19_418_TrMRF] What is its recorded folding stability dG unfold?
2.52

Consider the sequence shown here: SAGGSAGGSAGGGMSSAPPVTITPVSETTERLPNGTLVRTTTYAVDDGSTVTTTTVTPVSSAGGSAGGSAGG [r7_948_JUSTAS] What is its recorded folding stability dG unfold?
0.602

Consider the sequence shown here: SAMVEVSTLPDGTTRVTITGKDPAAFEKELAELIEKIKKEGINATITKTREEPIPEEPELYRAELEIIVSAG [r14_119_JUSTAS] What is its recorded folding stability dG unfold?
1.54

###

assay: folding stability dG unfold (combined trypsin and chymotrypsin); higher = more stable
Quick reference: folding stability dG unfold of the listed items.
Your answer is read as kcal/mol, so omit the unit and give the number.

1. SAGGSAGKIEIPLPELGEVREEPVPDTVRIEVRFPDGRVLEATVLKDDTIEIREKGTGKLVATLPASAGGSA [r15_656_TrMRF]    1.44
2. SAGGSAGGSAGGGSSVITTTETDPANGLLTTTTTTINGSETVPSSTVSPVPPPPPPSTLSAGGSAGGSAGGS [r10_354_JUSTAS]    1.11

# next sequence below
Consider the sequence shown here: SAGGSAKVKIYLIKLPPNGNPLEVIKKVKEKGGNAIIVSGPGLHAVIEADEPEEAAKKAKEILEKLSAGGSA [r15_546_TrMRF] What is its recorded folding stability dG unfold?
0.292

###

Quick reference: folding stability dG unfold of the listed items.
test: folding stability dG unfold from chymotrypsin proteolysis; higher = more stable
Your answer is read as kcal/mol, so omit the unit and give the number.

For orientation, consider the following solved cases.
1. SMKKTYTFPVTLVPKDGKASLTVNWYAPDGTSLGTQTKSASAEGNTVTATVTVTVDAPPGAKIPSITVNASA [r9_292_JUSTAS]    0.473
2. SAGGLKEIAKQLGPGADKVEIEWEPQPHDDMEMYRWKIRVKNPNNGKKRKLEVSIMYDPNGNIRSIMISAGG [r13_358_TrROS]    2.38
3. SVIIKGPGPETYYVEKFGNETKITKFSTEGDKFYKKEYYETFDPNNKTVSRKENEVEEIEPEEEKPFSELSA [r9_83_JUSTAS]    0.546

Consider the sequence shown here: SAGGPMPLDDIEIHNVWPYKGEYWMVMITVPNNGKEIMIPWDDLDELLENDPNVEVDVMPIKPGQPMSAGGS [r16_61_TrROS] What is its recorded folding stability dG unfold?
1.21

Consider the sequence shown here: SAGGSAGGMKITITFPDGTKKEIEVESEEELLEAIKKLAEELGLEKEVTVTVEYNGKTYTITLKSAGGSAGG [r6_531_TrROS_Hall] What is its recorded folding stability dG unfold?
5.13

Consider the sequence shown here: SAGGMKTSPIGTFPLPDPSNGALADTVTIENPKEIIKKSNKEIVKVTVTTTAPDGTPTTTDEIIIIKNSAGG [r13_735_JUSTAS] What is its recorded folding stability dG unfold?
0.548

Consider the sequence shown here: SAGGSAPVIVKEASLEEIKELKKKGVKKIILVEKNPEIAEKIKKEFEKEDDIPIETVSEEEAKKLKSAGGSA [r15_243_TrMRF] What is its recorded folding stability dG unfold?
-0.294
